Tested on: fungal mycelium
Assay: organism not typed
Type: cell-based
Details: read-out: % growth inhibition
Exercise: for every item that follows, state its recorded inhibition at 10 ppm.
Numbers only, in %.

Query: Give the observed inhibition at 10 ppm of CCC#CCN1N=C(c2ccc(Cl)cc2)CCC1=S for fungal mycelium.
Reply: 90.9

Query: Lab note: fungal mycelium assay, enter inhibition at 10 ppm for CCC#CCN1N=C(C=Cc2ccc(Cl)cc2)CCC1=O here
Reply: 100

Query: Answer briefly: inhibition at 10 ppm recorded on fungal mycelium for CCC#CCn1nc2c(cc1=O)CCc1cc(Cl)ccc1-2
Reply: 100

Query: Provide inhibition at 10 ppm, system fungal mycelium, entry CCC#CCN1N=C(c2ccc(Cl)cc2)CC=C1OC
Reply: 100

// input: 8 molecules below; output: inhibition at 10 ppm for each
1. O=C1CCC(c2ccc(Cl)cc2)=NN1CC#CC1CCCCC1
2. CCC#CCN1N=C(c2ccc(Cl)cc2)COC1=O
3. CCC#CCN1N=C2c3ccc(Cl)cc3C(C)C2CC1=O (stereo not shown)
4. O=C1CCC(c2ccc(Cl)cc2)=NN1Cc1cccc(Cl)c1
5. CCC#CCn1nc(-c2cc(F)cc(F)c2)ccc1=O
6. CCC#CCn1nc(-c2ccc(Cl)cc2)c2ccccc2c1=O
7. Cc1noc(C)c1CN1N=C(c2ccc(Cl)cc2)CCC1=O
8. CCC#CCn1nc(-c2ccccc2)c(-c2ccccc2)c(C#N)c1=O

Reply:
1. 22.2
2. 96.9
3. 92
4. 33.3
5. 100
6. 16
7. 36
8. 50

Give inhibition at 10 ppm for each of the items listed below.
1. CCCCCC#CCN1N=C(c2ccc(Cl)cc2)CCC1=O
2. O=C1CCC(c2ccc(Cl)cc2)=NN1CC#CCC1CCCCC1
3. CCC#CCN1N=C(c2cc(F)cc(F)c2)CCC1=O
4. Cc1ccc(Cn2nc(-c3ccc(Cl)cc3)ccc2=O)o1
5. O=C1CCC(c2ccc(Cl)cc2)=NN1CC#CCF
6. CCC#CCN1N=C(c2ccc(Cl)cc2)CC=C1Cl
7. CCC#CCSc1ccc(-c2ccc(Cl)cc2)nn1

Reply:
1: 94.5; 2: 22.2; 3: 40; 4: 100; 5: 100; 6: 100; 7: 18.2
